// inhibition lookup, one value per entry
Target: Pantothenate synthetase (Mycobacterium tuberculosis (strain ATCC 25618 / H37Rv)) (UniProt P9WIL5)
Sequence (P9WIL5 whole entry, looked up): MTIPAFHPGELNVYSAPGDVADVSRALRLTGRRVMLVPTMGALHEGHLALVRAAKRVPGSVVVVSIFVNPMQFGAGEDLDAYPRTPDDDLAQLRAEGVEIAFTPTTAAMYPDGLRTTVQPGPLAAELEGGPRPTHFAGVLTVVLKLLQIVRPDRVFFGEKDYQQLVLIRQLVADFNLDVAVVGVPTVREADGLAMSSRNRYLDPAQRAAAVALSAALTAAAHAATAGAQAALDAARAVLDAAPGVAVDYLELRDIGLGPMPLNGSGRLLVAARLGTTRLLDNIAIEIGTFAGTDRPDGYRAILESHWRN
Experiment: Coupled enzyme confirmation of inhibitors against recombinant Mtb PanC (AID 375);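 note: 0% = full reaction with vehicle and 100% = no enzyme background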
Settings: coupled enzyme assay; at 10 µM, hits give high values
Active and inactive are the calls of the source. The rule behind the calls is not given here.

Please review the following examples before continuing.
CC1CCC2C(C1)c1sc(=O)[nH]c1SC2(C)C (stereo unspecified)
2% (inactive)
COc1cc2c(OC)cccc2cc1C(=O)O
0% (inactive)
O=C(NCc1ccccc1)C1CCCN(S(=O)(=O)c2cccnc2)C1 (stereo unspecified)
0% (inactive)
COCCNC(=O)c1snc2ccc(Cl)cc12
0% (inactive)
c1csc(-c2nc3nc4ccccc4nc3n2Cc2ccc3c(c2)OCO3)c1
0% (inactive)

Name the recorded inhibition for "O=C(OCc1nnc(-c2ccccc2)o1)C1=COCCO1" .
0% (inactive)
